# Test Method Notes: Brain/plasma area under curve in DIO mice after 10 mg/kg oral dose
# Type: ADME, organism-based
# Parameters: dose 10 mg/kg, route oral
# Measurement Setup: mouse, read-out: AUC
Quantity Name: Kp

# Chemical String, Result Value
records = [
    ("O=C(NC1CCN(Cc2ccc3c(c2)OCO3)CC1)c1cc(Cl)ccc1NCc1nccs1", 0.7),
]

---

# Target Entity: Melanin-concentrating hormone receptor 1 (Homo sapiens, UniProt Q99705)
# Sequence (Q99705 whole entry): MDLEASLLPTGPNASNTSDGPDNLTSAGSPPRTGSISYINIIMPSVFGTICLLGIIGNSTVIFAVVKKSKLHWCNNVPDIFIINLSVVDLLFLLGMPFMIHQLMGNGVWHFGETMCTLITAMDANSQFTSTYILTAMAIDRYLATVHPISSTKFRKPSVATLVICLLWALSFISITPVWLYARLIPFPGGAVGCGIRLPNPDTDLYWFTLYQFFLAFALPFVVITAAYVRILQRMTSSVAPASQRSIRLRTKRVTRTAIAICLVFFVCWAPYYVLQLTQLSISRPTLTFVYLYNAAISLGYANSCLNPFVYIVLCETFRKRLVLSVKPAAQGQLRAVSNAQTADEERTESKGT
# Test Method Notes: Inhibitory activity towards melanin-concentrating hormone receptor 1 in IMR32 cells
# Type: cell-based, IMR-32
Readings of IC50 for the listed molecules

# Chemical String, IC50
measured = [
    ("O=C(Nc1ccc(Cl)cc1C(=O)NC1CCN(Cc2ccc3c(c2)OCO3)CC1)c1ccccn1", "20 nM"),
    ("COc1ccc(NCc2c[nH]cn2)c(C(=O)NC2CCN(Cc3ccc4ncccc4c3)CC2)c1", "70 nM"),
    ("COc1ccc(CN2CCC(NC(=O)c3cc(Cl)cnc3NCC(C)C)CC2)cc1F", "160 nM"),
    ("O=C(NC1CCN(Cc2ccc3c(c2)OCO3)CC1)c1cc(Cl)cnc1NCc1cnc[nH]1", "9 nM"),
    ("O=C(NC1CCN(Cc2ccc3c(c2)OCO3)CC1)c1cc(Cl)cnc1NC[C@H]1CCCO1", "50 nM"),
    ("COc1ccc(NS(C)(=O)=O)c(C(=O)NC2CCN(Cc3ccc(Cl)cc3)CC2)c1", "160 nM"),
    ("CC(C)OCCNc1ncc(-c2cccs2)cc1C(=O)NC1CCN(Cc2ccc3c(c2)OCO3)CC1", "190 nM"),
    ("COc1ccc(NCc2c[nH]cn2)c(C(=O)NC2CCN(Cc3ccc4ccccc4c3)CC2)c1", "390 nM"),
    ("O=C(NC1CCN(Cc2ccc3c(c2)OCO3)CC1)c1cc(Cl)ccc1O", "80 nM"),
    ("COc1ccc(NCc2cncnc2)c(C(=O)NC2CCN(Cc3ccc4c(c3)OCO4)CC2)c1", "9 nM"),
]
